Assign EC50 to each entry below.
Target: T1, human SIRPγ (human, UniProt Q9P1W8 29-387)
T1 construct: on transfected CHO-K1 cells; also called hSIRPγ
T1 sequence (Q9P1W8 29-387 limits assumed): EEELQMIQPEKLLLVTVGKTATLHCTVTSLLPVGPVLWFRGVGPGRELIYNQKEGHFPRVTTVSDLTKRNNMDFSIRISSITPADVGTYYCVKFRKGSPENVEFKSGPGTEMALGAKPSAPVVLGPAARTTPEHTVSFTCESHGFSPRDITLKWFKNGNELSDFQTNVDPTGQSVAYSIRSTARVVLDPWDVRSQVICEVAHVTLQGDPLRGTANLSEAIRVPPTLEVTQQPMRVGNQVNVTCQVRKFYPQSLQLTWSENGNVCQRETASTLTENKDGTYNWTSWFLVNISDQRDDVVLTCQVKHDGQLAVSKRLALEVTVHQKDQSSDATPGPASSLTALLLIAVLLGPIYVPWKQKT
Experiment: CELISA, CHO-K1 transfectants; extrapolated
Numbers only, in nM.

Previously resolved entries follow.
binder | EC50 / nM
hSIRPα.50A.H5L4 (antibody, human IgG4 S228P, kappa, V domains shown, human IgG4 S228P, kappa; also called hSIRPα.50H5L4) VH: EVQLVQSGAEVVKPGASVKVSCKASGFTFTNYYIHWVRQAPEQGLEWIGWIYPGNVNTKYNEKFKARVTMTADKSTSTAYMELSSLRSDDMAVYYCARPTIIATDFDVWGQGTTVTVSS VL: DIQMTQSPSSLSASVGDRVTITCKASQGVGTAVGWYQKKPGKVPKLLIYWASTRHTGVPDRFSGSGSGTDFTLTINGLQPEDVATYYCQQYSTYPFTFGGGTKLEIKR | 4.03
hSIRPα.50A.H3L5 (antibody, human IgG4 S228P, kappa, V domains shown, human IgG4 S228P, kappa; also called hSIRPα.50H3L5) VH: EVQLVQSGAEVVKPGASVMISCKASGFTFTNYYIHWVRQRPGQGLEWIGWIYPGNVNTKYNEKFKARVIMTADKSTSTVYMQLSSLTSEDTAVYYCARPTIIATDFDVWGQGTLVTVSS VL: DIVLTQSPSFLSASVGDRVTITCKASQGVGTAVGWYQQKPGKSPKLLIYWASTRHTGVPDRFSGSGSGTEFTLTISNLQPEDFAAYYCQQYSTYPFTFGGGTKLEIKR | 1.2
hSIRPα.50A.H4L5 (antibody, human IgG4 S228P, kappa, V domains shown, human IgG4 S228P, kappa; also called hSIRPα.50H4L5) VH: EVQLQQSGAELVKPGASVKVSCKASGFTFTNYYIHWVRQRPGQGLEWMGWIYPGNVNTKYNEKFKAKATITADKSTSTAYMELSSLTSEDTAVYYCARPTIIATDFDVWGQGTTVTVSS VL: DIVLTQSPSFLSASVGDRVTITCKASQGVGTAVGWYQQKPGKSPKLLIYWASTRHTGVPDRFSGSGSGTEFTLTISNLQPEDFAAYYCQQYSTYPFTFGGGTKLEIKR | 0.808
hSIRPα.50A.H4L1 (antibody, human IgG4 S228P, kappa, V domains shown, human IgG4 S228P, kappa; also called hSIRPα.50H4L1) VH: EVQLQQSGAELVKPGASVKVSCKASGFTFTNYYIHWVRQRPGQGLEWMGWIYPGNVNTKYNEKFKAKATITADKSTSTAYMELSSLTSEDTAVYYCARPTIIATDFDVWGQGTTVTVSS VL: DIVLTQSPSFLSASVGDRVTITCKASQGVGTAVGWYQQKPGKAPKLLIYWASTRHTGVPDRFSGSGSGTEFTLTISSLQPEDFAAYYCQQYSTYPFTFGGGTKLEIKR | 0.95

Answer for every listed entry: what is its EC50? The entries follow.
1. hSIRPα.50A.H1L5 (antibody, human IgG4 S228P, kappa, V domains shown, human IgG4 S228P, kappa; also called hSIRPα.50H1L5) VH: EVQLQQSGAEVVKPGASVKVSCKASGFTFTNYYIHWVRQAPGQGLEWIGWIYPGNVNTKYNEKFKARVTITADKSTSTAYMDLSSLRSEDTAVYYCARPTIIATDFDVWGQGTTVTVSS VL: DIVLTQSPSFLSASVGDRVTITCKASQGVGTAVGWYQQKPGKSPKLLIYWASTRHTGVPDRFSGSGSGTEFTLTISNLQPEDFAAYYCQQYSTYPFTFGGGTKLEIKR
2. hSIRPα.50A.H1L2 (antibody, human IgG4 S228P, kappa, V domains shown, human IgG4 S228P, kappa; also called hSIRPα.50H1L2) VH: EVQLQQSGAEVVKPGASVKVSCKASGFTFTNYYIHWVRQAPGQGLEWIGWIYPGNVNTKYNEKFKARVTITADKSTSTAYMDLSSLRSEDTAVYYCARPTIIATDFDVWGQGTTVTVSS VL: DIVMTQSPSSLSASVGDRVTITCKASQGVGTAVGWYQQKPGKAPKLLIYWASTRHTGVPDRFSGSGSGTDFTLTISNLQPEDFADYYCQQYSTYPFTFGGGTKVEIKR
3. hSIRPα.50A.H5L3 (antibody, human IgG4 S228P, kappa, V domains shown, human IgG4 S228P, kappa; also called hSIRPα.50H5L3) VH: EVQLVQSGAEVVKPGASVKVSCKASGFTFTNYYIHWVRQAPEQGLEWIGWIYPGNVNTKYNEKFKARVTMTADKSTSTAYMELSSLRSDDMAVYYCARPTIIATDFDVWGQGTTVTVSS VL: ELVMTQSPSSLSASVGDRVTITCKASQGVGTAVGWYQQKPGKAPKLLIYWASTRHTGVPDRFSGSGSGTDFTLAISSLQPEDIADYYCQQYSTYPFTFGGGTKVEIKR

1: 1.01; 2: 1.26; 3: 1.61
